Target: T1, PriA (D. radiodurans) (Deinococcus radiodurans R1, UniProt P0DXX8 1-925)
T1 sequence: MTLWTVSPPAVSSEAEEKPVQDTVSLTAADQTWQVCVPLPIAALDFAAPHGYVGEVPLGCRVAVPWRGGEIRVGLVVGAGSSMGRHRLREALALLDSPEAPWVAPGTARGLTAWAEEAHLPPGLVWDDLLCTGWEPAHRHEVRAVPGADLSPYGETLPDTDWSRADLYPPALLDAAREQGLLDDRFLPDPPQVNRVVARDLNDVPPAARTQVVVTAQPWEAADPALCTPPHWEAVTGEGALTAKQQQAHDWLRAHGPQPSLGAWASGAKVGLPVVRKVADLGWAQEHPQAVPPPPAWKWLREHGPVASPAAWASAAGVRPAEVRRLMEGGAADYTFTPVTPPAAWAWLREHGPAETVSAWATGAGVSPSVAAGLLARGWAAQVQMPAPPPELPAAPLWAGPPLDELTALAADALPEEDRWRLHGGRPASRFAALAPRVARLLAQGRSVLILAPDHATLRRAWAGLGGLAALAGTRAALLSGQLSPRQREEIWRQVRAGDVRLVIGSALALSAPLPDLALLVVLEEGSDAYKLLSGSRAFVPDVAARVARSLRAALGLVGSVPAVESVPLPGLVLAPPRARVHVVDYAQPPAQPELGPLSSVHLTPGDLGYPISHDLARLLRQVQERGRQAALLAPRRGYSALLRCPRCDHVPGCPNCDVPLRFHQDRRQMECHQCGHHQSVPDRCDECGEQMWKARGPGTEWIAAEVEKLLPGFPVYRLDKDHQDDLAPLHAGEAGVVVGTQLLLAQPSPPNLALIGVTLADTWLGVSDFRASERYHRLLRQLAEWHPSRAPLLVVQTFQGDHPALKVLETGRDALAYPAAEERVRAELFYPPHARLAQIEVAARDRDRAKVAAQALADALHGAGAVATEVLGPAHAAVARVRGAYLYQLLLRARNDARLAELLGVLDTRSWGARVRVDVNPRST
Assay: fluorescence anisotropy; 1 mM Mg2+, no ATP listed; apparent Kd (half-bound); 20 mM Tris-HCl pH 8, 15% glycerol, 50 mM NaCl, 1 mM MgCl2, 1 mM 2-mercaptoethanol, 0.1 g/L BSA, 1 nM DNA, 25 C
Conditions: protein: recombinant; tags: N-terminal His6 removed by thrombin, leaving Gly-Ser-His before Met1; label: 3' fluorescein; single strand
reported-property: pKd
In plain terms, pKd is the concentration in mol/L turned into minus its base-10 logarithm.

# pKd (binder: AAGCACAATTACCCACGC (ssDNA) [18-base mixed-sequence ssDNA] ) is 6.67
